tgt: Notch receptor (human)
experimentalDetails: cell-based or functional assay
// reported IC50 (ng Ab/mL), MTS viability of MDA-MB-468/hNotch cells (repeat 1) per item
observedProperty: IC50 (ng Ab/mL), MTS viability of MDA-MB-468/hNotch cells (repeat 1)

>  <binder>
Notch-75-v1913-hG1-(C)_mcValCitPABC-#54 (antibody, human IgG1, kappa, V domains shown, drug-linker mcValCitPABC-#54 on cysteine (C), positions not given; drug-linker mcValCitPABC-#54 on cysteine (C), positions not given; DAR 3.8 per antibody) VH: EVQLVESGGGLVQPGGSLRLSCAASGYAFTDYWMTWVRQAPGKGLEWVAEISPNSGGTNFNEKFKGRFTISVDNAKNSLYLQMNSLRAEDTAVYYCARGEIRYNWFAYWGQGTLVTVSS VL: DIQMTQSPSSLSASVGDRVTITCKASQNVGNNIAWYQQKPGKAPKLLIYYASNRYTGVPSRFSGSGYGTDFTLTISSLQPEDFATYYCQRLYNSPFTFGGGTKVEIKR

>  <measured>
37

$$$$
>  <binder>
Notch-75-v1913-hG1-(C)_mcValCitPABC-#112 (antibody, human IgG1, kappa, V domains shown, drug-linker mcValCitPABC-#112 on cysteine (C), positions not given; drug-linker mcValCitPABC-#112 on cysteine (C), positions not given; DAR 4.2 per antibody) VH: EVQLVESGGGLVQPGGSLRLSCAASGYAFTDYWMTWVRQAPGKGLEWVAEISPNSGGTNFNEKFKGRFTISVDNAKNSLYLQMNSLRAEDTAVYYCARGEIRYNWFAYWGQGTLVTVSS VL: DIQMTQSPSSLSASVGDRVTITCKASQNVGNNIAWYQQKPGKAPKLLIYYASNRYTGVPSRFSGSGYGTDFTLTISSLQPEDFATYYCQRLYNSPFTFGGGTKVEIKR

>  <measured>
26

$$$$
>  <binder>
Notch-28-v1010-hG1-(C)_mcValCitPABC-#112 (antibody, human IgG1, kappa, V domains shown, drug-linker mcValCitPABC-#112 on cysteine (C), positions not given; drug-linker mcValCitPABC-#112 on cysteine (C), positions not given; DAR 3.9 per antibody) VH: EVQLVESGGGLVQPGGSLRLSCAASGFTFRDYGMTWVRQAPGKGLEWVAYISSGSNYIYYAEAVKGRFTISRDNAKNSLYLQMNSLRAEDTAVYYCARRGPFVLDAWGQGTLVTVSS VL: DIQMTQSPSSLSASVGDRVTITCKASQSINRYLHWYQQKPGKAPKLLIYNANGLQTGVPSRFSGSGSGTDFTLTISSLQPEDFATYYCLQHNTWPDTFGGGTKVEIKR

>  <measured>
1.3

$$$$
>  <binder>
Notch-28-v1010-hG1-(C)_mcValCitPABC-#54 (antibody, human IgG1, kappa, V domains shown, drug-linker mcValCitPABC-#54 on cysteine (C), positions not given; drug-linker mcValCitPABC-#54 on cysteine (C), positions not given; DAR 3.9 per antibody) VH: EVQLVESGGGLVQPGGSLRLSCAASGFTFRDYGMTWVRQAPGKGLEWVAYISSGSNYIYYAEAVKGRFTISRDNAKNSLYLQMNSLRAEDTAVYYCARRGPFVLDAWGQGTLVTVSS VL: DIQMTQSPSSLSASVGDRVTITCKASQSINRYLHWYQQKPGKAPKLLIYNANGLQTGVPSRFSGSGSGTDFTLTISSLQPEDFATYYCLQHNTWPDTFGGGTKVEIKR

>  <measured>
3.2

$$$$
